// data source = paper PMC7826789

System: TSSK1B;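 note: KINOMEscan scanMAX binding as percent activity remaining versus control; lower means stronger binding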
Conditions: Compound Concentration (nM):1000
quantity: Percent Control

Name the value of Percent Control reported for COc1cccc(-n2ncc3c(N/N=C/c4ccncc4)ncnc32)c1 [GW784752X] when tested on TSSK1B. 100%

Name the value of Percent Control reported for CC1=C(C(=O)Nc2ccc3[nH]ncc3c2)C(c2ccc(Cl)c(Cl)c2)CC(=O)N1 (stereo not drawn) [GSK299115A] when tested on TSSK1B. 93%

Name the value of Percent Control reported for NS(=O)(=O)c1ccc(N/N=C2\C(=O)Nc3ccc(C(=O)NCc4ccncc4)cc32)cc1 [GW300657X] when tested on TSSK1B. 100%

Name the value of Percent Control reported for COc1cc(/C=N/Nc2ncnc3[nH]ncc23)ccc1O [GW578748X] when tested on TSSK1B. 100%

Name the value of Percent Control reported for COc1ccc2c(-c3ccnc(Nc4cccc(OC(F)(F)F)c4)n3)cnn2n1 [GW810372X] when tested on TSSK1B. 100%

Moving on to another compound below.
Name the value of Percent Control reported for C/C(Nc1ccc(S(N)(=O)=O)cc1)=C1/C(=O)Nc2ccccc21 [GW335962X] when tested on TSSK1B. 100%
